Reference source: BigSolDB 2.1

Details: in ethanol, 300.15 K
EXPERIMENTAL READOUT: solubility (mole fraction)
Just the number, please, no unit after it.

Q: Would you mind telling me what solubility (mole fraction) value was observed for COC1=C(OC)C(=O)C(C/C=C(\C)CC/C=C(\C)CC/C=C(\C)CC/C=C(\C)CC/C=C(\C)CC/C=C(\C)CC/C=C(\C)CC/C=C(\C)CC/C=C(\C)CCC=C(C)C)=C(C)C1=O ?
Ans: 6.1e-05

---

Conditions: in ethyl acetate, 310.15 K
EXPERIMENTAL READOUT: solubility (mole fraction)
Just the number, please, no unit after it.

Q: Would you mind telling me what solubility (mole fraction) value was observed for COC1=C(OC)C(=O)C(C/C=C(\C)CC/C=C(\C)CC/C=C(\C)CC/C=C(\C)CC/C=C(\C)CC/C=C(\C)CC/C=C(\C)CC/C=C(\C)CC/C=C(\C)CCC=C(C)C)=C(C)C1=O ?
Ans: 0.431
